- Test system: folylpolyglutamate synthetase
- method.notes: Km for hog liver folyl-poly-glutamate synthetase was evaluated
- Format: ADME, Sus scrofa
- condition.parameters: pig, hog liver folylpolyglutamate synthetase
property.name: Km (µM)

molecule	unit.spec	value.observed
O=C(O)CCC(NC(=O)c1ccc(OCc2ccc3ncnc(O)c3c2)cc1)C(=O)O (stereo unspecified)	µM	35

A = Nc1nc(O)c2cc(CSc3ccc(C(=O)NC(CCC(=O)O)C(=O)O)cc3)ccc2n1 (stereo unspecified)
B = Nc1nc(O)c2c(Cl)c(CNc3ccc(C(=O)NC(CCC(=O)O)C(=O)O)cc3)ccc2n1 (stereo unspecified)
C = Nc1nc(O)c2cc(COc3ccc(C(=O)NC(CCC(=O)O)C(=O)O)cc3)ccc2n1 (stereo unspecified)
D = O=C(O)CCC(NC(=O)c1ccc(SCc2ccc3ncnc(O)c3c2)cc1)C(=O)O (stereo unspecified)
E = Nc1nc(N)c2c(Cl)c(CNc3ccc(C(=O)NC(CCC(=O)O)C(=O)O)cc3)ccc2n1 (stereo unspecified)
Ask: Reorder: Km, max to min. Field: ranking. Enter the labels in the order requested.
Reply: C, A, D, B, E
(C: 22 µM, A: 15 µM, D: 8.1 µM, B: 0.3 µM, E: 0.2 µM)

Data credit: ChEMBL document CHEMBL1124621
